Data credit: PubChem BioAssay (NCI)

System: RPMI-8226 leukemia
Assay: NCI-60 one-dose screen, 48 h
Details: 10 µM unless noted
This is part of a sample that, as a whole, favours compounds with a hit. Of some 83,000 tested, about 20% had one in any assay. The source made the active and inactive calls. How the source made its calls: active means growth percent below 10; inactive means the rest.
Choose the fitting class; nothing outside class 1 = active, class 0 = inactive is accepted.

**Query** Lab log entry: "C/C(=C\c1ccn(-c2ccc(N)cc2)n1)[C@@H]1C[C@@H]2O[C@]2(C)CCC[C@H](C)[C@H](O)[C@@H](C)C(=O)C(C)(C)[C@@H](O)CC(=O)O1" — outcome as called in the assay?
**Result** class 0

**Query** Lab log entry: "O=C(Nc1ccc(Br)cc1)c1cc(Br)cc(Br)c1O" — outcome as called in the assay?
**Result** class 1

**Query** Lab log entry: "Nc1c(F)cc(-c2nc3cc(F)ccc3[se]2)cc1F" — outcome as called in the assay?
**Result** class 0

**Query** Lab log entry: "C=CCc1cc2c(cc1OCC)OCO2" — outcome as called in the assay?
**Result** class 0

**Query** Lab log entry: "C[C@]12CC[C@@H]3c4ccc(Oc5nc(N6CC6)nc(N6CC6)n5)cc4CC[C@H]3[C@@H]1CCC2=O" — outcome as called in the assay?
**Result** class 1
